Entries and their measured IC50 follow.
# Species on record: Homo sapiens
# test: In vitro inhibition of collagen-induced platelet aggregation in human platelet rich plasma
# Type: functional
Just the number please, in ng/mL, no unit attached.

Would you please look over these solved cases?
test_smiles: COc1ccc(-c2nc(CC(=O)[O-])sc2-c2ccc(OC)cc2)cc1.[Li+]
display_unit: ng/mL
reported: 32
//
test_smiles: COc1ccc(-c2nc(CCO)sc2-c2ccc(OC)cc2)cc1
display_unit: ng/mL
reported: 0.32

Task: What value of IC50 has been recorded for this entry: COc1ccc(-c2nc(C(F)(F)F)sc2-c2ccc(OC)cc2)cc1
Result: 1

----------
Recorded inhibition in vivo at 5 mg/kg, one value per entry.
# System: Cavia porcellus
# test: Percent inhibition of platelet aggregation following oral administration to guinea pigs at a dose of 5 mg/kg
# Format: functional
Give the value, in units of %, as a plain number.

compound: COc1ccc(-c2nc(CC(N)=O)sc2-c2ccc(OC)cc2)cc1
value_type: inhibition in vivo at 5 mg/kg
display_unit: %
reported: 96

compound: COc1ccc(-c2nc(CCO)sc2-c2ccc(OC)cc2)cc1
value_type: inhibition in vivo at 5 mg/kg
display_unit: %
reported: 79

compound: COc1ccc(-c2nc(C(F)(F)F)sc2-c2ccc(OC)cc2)cc1 [ITAZIGREL]
value_type: inhibition in vivo at 5 mg/kg
display_unit: %
reported: 100

Task: Lab request: please report inhibition in vivo at 5 mg/kg under test system Cavia porcellus for COC(=O)C(C)(C)c1nc(-c2ccc(OC)cc2)c(-c2ccc(OC)cc2)s1
Result: 100

Task: Notebook entry, Cavia porcellus assay: inhibition in vivo at 5 mg/kg of COc1ccc(-c2nc(C(C)C)sc2-c2ccc(OC)cc2)cc1 = ?
Result: 85
